Test system: HCT116 parental cells
measurement-description: Proliferation assay (CellTiter-Glo, 10 days of treatment), HCT116 parental
Type: cell-based
study-conditions: Homo sapiens, HCT-116, 240 h
attribute-measured: pIC50
Units for pIC50: none; it is -log10 of a concentration expressed in mol/L.

# return pIC50 for `CCc1cc(Cl)cc(-c2c(-c3ccc4c(=O)[nH]nc(CN)c4c3)cnn2C)c1C#N` , test system: HCT116 parental cells
5.37

# return pIC50 for `NCc1n[nH]c(=O)c2ccc(-c3cncc(Oc4cccc(Cl)c4)c3)cc12` , test system: HCT116 parental cells
5.11

# return pIC50 for `Cc1cccc2c(C#N)c(-c3c(-c4ccc5c(=O)[nH]nc(CN)c5c4)cnn3C)ccc12` , test system: HCT116 parental cells
5.48

# return pIC50 for `Cn1ncc(-c2ccc3c(=O)[nH]nc(CN)c3c2)c1-c1c(F)cc2ccccc2c1C#N` , test system: HCT116 parental cells
5.92

# return pIC50 for `Cn1ncc(-c2cc(Cl)c3c(=O)[nH]nc(CN)c3c2)c1-c1cc(Cl)cc(OC2CC2)c1C#N` , test system: HCT116 parental cells
5.75

# return pIC50 for `COc1cccc2c(C#N)c(-c3c(-c4ccc5c(=O)[nH]nc(CN)c5c4)cnn3C)ccc12` , test system: HCT116 parental cells
5.74

---

system-tested: PRMT5/MEP50 complex (Homo sapiens (Human))
measurement-description: PRMT5:MEP50 FlashPlate Assay (histone H4 peptide substrate, plus and minus MTA)
Type: biochemical
study-conditions: in the absence of MTA, read-out: IC50
Method: The PRMT5 inhibitory activity of compounds of the present invention was determined using either a PRMT5:MEP50 FlashPlate Assay (Reaction Biology Corporation) or a PRMT5:MEP50 HotSpot Assay (Reaction Biology Corporation). 1. PRMT5:MEP50 FlashPlate Assay
Record form. Attribute: pIC50. Fill in for each entry.
Units for pIC50: none; it is -log10 of a concentration expressed in mol/L.

State its pIC50: NCc1n[nH]c(=O)c2ccc(-c3cncc(CC4CC4)c3)cc12 [Example 3-35]
5.82

State its pIC50: NCc1n[nH]c(=O)c2ccc(-c3cncc(C(F)(F)F)c3)cc12 [Example 3-43]
5.19

State its pIC50: Cc1ncc(-c2ccc3c(=O)[nH]nc(CN)c3c2)cn1 [Example 3-11]
3.88

State its pIC50: NCc1n[nH]c(=O)c2ccc(-c3cncc4ccccc34)cc12 [Example 3-54]
5.89

State its pIC50: Cn1ncc(-c2ccc3c(=O)[nH]nc(CN)c3c2)c1-c1ccccc1C#N [Example 4-100]
7.10

State its pIC50: NCc1n[nH]c(=O)c2ccc(-c3ccnnc3)cc12 [Example 3-2]
5.00

State its pIC50: N#Cc1ccc(F)cc1-c1cncc(-c2ccc3c(=O)[nH]nc(CN)c3c2)c1 [Example 8-1]
5.78

---

system-tested: PRMT5/MEP50 complex (Homo sapiens (Human), UniProt O14744)
Sequence (O14744 2-637): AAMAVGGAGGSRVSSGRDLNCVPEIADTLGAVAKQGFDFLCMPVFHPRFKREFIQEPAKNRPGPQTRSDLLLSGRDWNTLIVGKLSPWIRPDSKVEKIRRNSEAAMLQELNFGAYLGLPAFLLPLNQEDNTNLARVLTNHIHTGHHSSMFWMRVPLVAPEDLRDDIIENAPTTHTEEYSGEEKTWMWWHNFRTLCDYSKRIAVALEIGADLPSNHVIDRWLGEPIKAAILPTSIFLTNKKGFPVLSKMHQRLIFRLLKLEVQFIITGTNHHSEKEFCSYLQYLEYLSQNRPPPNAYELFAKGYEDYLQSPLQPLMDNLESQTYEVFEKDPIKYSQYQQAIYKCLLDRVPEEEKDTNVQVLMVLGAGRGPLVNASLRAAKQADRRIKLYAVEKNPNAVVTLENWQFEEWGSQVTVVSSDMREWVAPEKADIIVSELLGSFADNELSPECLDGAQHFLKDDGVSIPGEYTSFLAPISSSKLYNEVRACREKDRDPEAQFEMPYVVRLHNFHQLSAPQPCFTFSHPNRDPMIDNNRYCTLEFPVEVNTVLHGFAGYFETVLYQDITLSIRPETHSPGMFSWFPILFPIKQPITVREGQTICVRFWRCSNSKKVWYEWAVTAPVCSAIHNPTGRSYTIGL
Sequence (Q9BQA1 2-342 partner): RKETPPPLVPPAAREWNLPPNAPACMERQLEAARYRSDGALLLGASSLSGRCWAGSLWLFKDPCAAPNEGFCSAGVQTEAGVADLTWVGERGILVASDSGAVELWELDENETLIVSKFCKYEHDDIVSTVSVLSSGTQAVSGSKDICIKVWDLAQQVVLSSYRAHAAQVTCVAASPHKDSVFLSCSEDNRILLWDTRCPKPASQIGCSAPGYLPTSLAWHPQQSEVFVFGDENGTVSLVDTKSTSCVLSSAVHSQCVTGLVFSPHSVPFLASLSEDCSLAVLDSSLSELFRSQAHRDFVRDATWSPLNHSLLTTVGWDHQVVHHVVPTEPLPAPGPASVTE
measurement-description: PRMT5:MEP50 FlashPlate Assay (histone H4 peptide substrate, plus and minus MTA)
Type: biochemical
study-conditions: in the absence of MTA, read-out: IC50
pIC50: −log10 of the molar value.
Decision: pIC50 compared against 6; not below it gives 1 (yes), below it gives 0 (no).

Does `N#Cc1cncc(-c2ccc3c(=O)[nH]nc(CN)c3c2)c1F` have a reported pIC50 of at least 6?
0 (no)

Does `NCc1n[nH]c(=O)c2ccc(-c3cnsc3-c3ccccc3)cc12` have a reported pIC50 of at least 6?
0 (no)

Does `Cc1ccccc1-c1ccc2c(=O)[nH]nc(CN)c2c1` have a reported pIC50 of at least 6?
0 (no)

Does `CC(C)c1cncc(-c2ccc3c(=O)[nH]nc(CN)c3c2)c1` have a reported pIC50 of at least 6?
1 (yes)

Does `NCc1n[nH]c(=O)c2ccc(-c3cnc4ccc(Cl)cn34)cc12` have a reported pIC50 of at least 6?
0 (no)

Does `NCc1n[nH]c(=O)c2ccc(-c3cncc(Oc4ccc(Cl)cc4)c3)cc12` have a reported pIC50 of at least 6?
1 (yes)

Does `NCc1n[nH]c(=O)c2ccc(-c3ccc(C(F)(F)F)nc3)cc12` have a reported pIC50 of at least 6?
0 (no)

Does `NCc1n[nH]c(=O)c2ccc(-c3cnn4c3CN(C(=O)c3ccccc3)CC4)cc12` have a reported pIC50 of at least 6?
0 (no)

Does `NCc1n[nH]c(=O)c2ccc(-c3cncc(O)c3)cc12` have a reported pIC50 of at least 6?
0 (no)

Does `Cc1ccc(-c2c(-c3ccc4c(=O)[nH]nc(CN)c4c3)cnn2C)c(C#N)c1` have a reported pIC50 of at least 6?
1 (yes)

Does `NCc1n[nH]c(=O)c2ccc(-c3cnc4cnccn34)cc12` have a reported pIC50 of at least 6?
0 (no)

Does `CCN1CCn2ncc(-c3ccc4c(=O)[nH]nc(CN)c4c3)c2C1` have a reported pIC50 of at least 6?
0 (no)

Does `Cn1cc(-c2ccc3c(CN)n[nH]c(=O)c3c2)cn1` have a reported pIC50 of at least 6?
0 (no)

Does `NCc1n[nH]c(=O)c2ccc(-c3cncn3Cc3ccccc3)cc12` have a reported pIC50 of at least 6?
0 (no)

Does `Cc1ccccc1Sc1cncc(-c2ccc3c(=O)[nH]nc(CN)c3c2)c1` have a reported pIC50 of at least 6?
1 (yes)

Does `NCc1n[nH]c(=O)c2ccc(-c3cnc4ccc(-c5ccccc5)cn34)cc12` have a reported pIC50 of at least 6?
1 (yes)

Does `NCc1n[nH]c(=O)c2ccc(-c3cncc(Oc4ccncc4)c3)cc12` have a reported pIC50 of at least 6?
0 (no)

Does `CN(c1ccccc1)c1cncc(-c2ccc3c(=O)[nH]nc(CN)c3c2)c1` have a reported pIC50 of at least 6?
1 (yes)

Does `N#Cc1c[nH]c2ncc(-c3ccc4c(=O)[nH]nc(CN)c4c3)cc12` have a reported pIC50 of at least 6?
0 (no)

Does `NCc1n[nH]c(=O)c2ccc(-c3cncc4[nH]ccc34)cc12` have a reported pIC50 of at least 6?
0 (no)

Does `CCCNc1ccc2c(CN)n[nH]c(=O)c2c1` have a reported pIC50 of at least 6?
0 (no)

Does `Cn1ncc(-c2ccc3c(=O)[nH]nc(CN)c3c2)c1Cl` have a reported pIC50 of at least 6?
0 (no)

Does `Cn1ncc(-c2ccc3c(=O)[nH]nc(CN)c3c2)c1-c1ccc(F)cc1` have a reported pIC50 of at least 6?
1 (yes)

Does `NCc1n[nH]c(=O)c2ccc(C3CCCC3)cc12` have a reported pIC50 of at least 6?
0 (no)

Does `NCc1n[nH]c(=O)c2ccc(-c3cncc(C4CC4)c3)cc12` have a reported pIC50 of at least 6?
0 (no)

Does `Cc1nc2cnccn2c1-c1ccc2c(=O)[nH]nc(CN)c2c1` have a reported pIC50 of at least 6?
0 (no)

Does `NCc1n[nH]c(=O)c2ccc(-c3cnc4c(F)cccn34)cc12` have a reported pIC50 of at least 6?
0 (no)

Does `Cc1nn(C)c(C)c1-c1ccc2c(=O)[nH]nc(CN)c2c1` have a reported pIC50 of at least 6?
0 (no)

Does `Cc1cncc(-c2ccc3c(=O)[nH]nc(CN)c3c2)c1` have a reported pIC50 of at least 6?
0 (no)

Does `COc1ccc(-c2c(-c3ccc4c(=O)[nH]nc(CN)c4c3)cnn2C)cc1` have a reported pIC50 of at least 6?
1 (yes)

Does `N#Cc1ccc(Oc2cncc(-c3ccc4c(=O)[nH]nc(CN)c4c3)c2)cc1` have a reported pIC50 of at least 6?
1 (yes)

Does `NCc1n[nH]c(=O)c2ccc(-c3cnn4ccccc34)cc12` have a reported pIC50 of at least 6?
1 (yes)

Does `CS(=O)(=O)c1cncc(-c2ccc3c(=O)[nH]nc(CN)c3c2)c1` have a reported pIC50 of at least 6?
0 (no)

Where do the numbers come from? From patent US11479551B2.
